Assay: Dimensions (size, PDI) of DNPs co-assembled from IAJDs and Luc-mRNA by DLS
Format: physicochemical
Details: Table 13; DNPs, IAJD 4 mg/mL + Luc-mRNA 0.10 mg/mL, acetate buffer pH 4.0
With a cut-off of 0.4, any PDI strictly below it is called rule met; any PDI meeting it or above is called rule not met.

CCCCCCCCCCCCCCOc1cc(COC(=O)CCCN2CCN(C)CC2)cc(OCCCCCCCCCCC)c1 [IAJD 105] = rule met

IN: Identify whether the molecule CCCCCCCCCCCCOCC(COCCCCCCCCCCCC)(COCCCCCCCCCCCC)COC(=O)CCCN1CCN(C)CC1 [IAJD 82] records PDI below 0.4.
OUT: rule met

IN: Identify whether the molecule CCCCCCCCCCCCCCOc1cc(COC(=O)CCCN2CCN(C)CC2)cc(OCCCCCCCCCCCCCC)c1 [IAJD 74] records PDI below 0.4.
OUT: rule met

IN: Identify whether the molecule CCCCCCCCCCCCCCCCOc1cc(COC(=O)CCCN2CCN(C)CC2)cc(OCCCCCCCCCCCCCCCC)c1 [IAJD 75] records PDI below 0.4.
OUT: rule met

###

The compounds listed here are annotated with their pKa.
Test: pKa measurements of individual IAJD molecules by titration
Format: physicochemical
Details: ethanol saturated with NaCl, titrated with 0.1 M aqueous HCl; Table 15; individual IAJD molecule, titration
// no unit, no text: just the number

Answered cases to consult:
CCCCCCCCCCCCOc1cc(COC(=O)CCN2CCN(C)CC2)cc(OCCCCCCCCCCCC)c1 = 6.19
CCCCC(CC)COC(=O)CCCCOc1cc(COC(=O)CCCN2CCN(CCO)CC2)cc(OCCCCC(=O)OCC(CC)CCCC)c1 (centres unmarked) = 6.33
CCCCCCCCCCCCCCCCOc1cc(COC(=O)CCCN2CCN(C)CC2)cc(OCCCCCCCCCCCC)c1 = 6.38

IN: Entry CCCCCCCCCOc1cc(COC(=O)CCCN2CCN(C)CC2)cc(OCCCCCCCCC)c1 needs its pKa filled in; supply it.
OUT: 6.4

###

Test: pKa measurements of individual IAJD molecules by titration
Type: physicochemical
Settings: ethanol saturated with NaCl, titrated with 0.1 M aqueous HCl; individual IAJD molecules, titration
The compounds listed here are annotated with their pKa.
// no unit, no text: just the number

Answered cases to consult:
CCCCCCCCCCCCCCOc1cc(COC(=O)CCCN2CCN(CCO)CC2)cc(OCCCCCCCCCCCCC)c1 = 6.03
CCCCCCCCCCCCCCCCCOc1cc(COC(=O)CCCN2CCN(C)CC2)cc(OCCCCCCCCCCCCCCC)c1 = 6.39
CCCCCCCCCCCCCCOc1cc(COC(=O)CCCN2CCN(C)CC2)cc(OCCCCCCCCCCCCC)c1 = 6.16
CCCCCCCCCCCCCCOc1cc(COC(=O)CCCN2CCN(CCO)CC2)cc(OCCCCCCCCCCC)c1 = 6.64

Now for another entry.
IN: Entry CCCCCCCCCCCCCCCOc1cc(COC(=O)CCCN2CCN(CCO)CC2)cc(OCCCCCCCCCCCCCC)c1 needs its pKa filled in; supply it.
OUT: 6.65

###

Assay: DLS size of dendrimersomes assembled from glycerol-JDs in water at different concentrations
Assay type: physicochemical
Settings: JD 0.4 mg·mL−1 in water; size distribution by intensity
Protocol: Assembly of all eight glycerol-JDs was performed by injection of their ethanol solution (50 μL) into 1 mL of Milli-Q water. The size distribution and structure of resulting DSs were analyzed by DLS (FIG. 84) and cryo-TEM. […] In a certain concentration range the size of DSs increased with the concentration of JDs injected in water or buffer. […] The dimensions of the assemblies were identical when the concentrations of the JDs in water were identical. […]
assay.metric: Dh (nm)
Reply numerically in nm, unit not repeated.

Answered cases to consult:
CCCCCCCCCCCCOc1cc(OCCCCCCCCCCCC)cc(C(=O)OC[C@H](COC(=O)C(C)(COC(=O)c2cc(OCCOCCOCCOC)c(OCCOCCOCCOC)c(OCCOCCOCCOC)c2)COC(=O)c2cc(OCCOCCOCCOC)c(OCCOCCOCCOC)c(OCCOCCOCCOC)c2)OC(=O)c2cc(OCCCCCCCCCCCC)cc(OCCCCCCCCCCCC)c2)c1 [Compound 1R, (3,5)-12G1-GC-(R)-BMPA-(3,4,5)-3EO-G1] = 178
CCCCCCCCCCCCOc1cc(OCCCCCCCCCCCC)cc(C(=O)OC[C@@H](COC(=O)C(C)(COC(=O)c2cc(OCCOCCOCCOC)c(OCCOCCOCCOC)c(OCCOCCOCCOC)c2)COC(=O)c2cc(OCCOCCOCCOC)c(OCCOCCOCCOC)c(OCCOCCOCCOC)c2)OC(=O)c2cc(OCCCCCCCCCCCC)cc(OCCCCCCCCCCCC)c2)c1 [Compound 1S, (3,5)-12G1-GC-(S)-BMPA-(3,4,5)-3EO-G1] = 184
CCCCCCCCCCCCOc1cc(OCCCCCCCCCCCC)cc(C(=O)OCC(COC(=O)C(C)(COC(=O)c2cc(OCCOCCOCCOC)c(OCCOCCOCCOC)c(OCCOCCOCCOC)c2)COC(=O)c2cc(OCCOCCOCCOC)c(OCCOCCOCCOC)c(OCCOCCOCCOC)c2)OC(=O)c2cc(OCCCCCCCCCCCC)cc(OCCCCCCCCCCCC)c2)c1 (racemic) [Compound 1rac, (3,5)-12G1-GC-(rac)-BMPA-(3,4,5)-3EO-G1] = 174
CCCCCCCCCCCCOc1cc(OCCCCCCCCCCCC)cc(C(=O)OCC(C)(COC(=O)c2cc(OCCCCCCCCCCCC)cc(OCCCCCCCCCCCC)c2)C(=O)OC[C@@H](COC(=O)c2cc(OCCOCCOCCOC)c(OCCOCCOCCOC)c(OCCOCCOCCOC)c2)OC(=O)c2cc(OCCOCCOCCOC)c(OCCOCCOCCOC)c(OCCOCCOCCOC)c2)c1 [Compound 2R, (3,5)-12G1-BMPA-GC-(R)-(3,4,5)-3EO-G1] = 180

IN: Entry CCCCCCCCCCCCOc1cc(OCCCCCCCCCCCC)cc(C(=O)OCC(C)(COC(=O)c2cc(OCCCCCCCCCCCC)cc(OCCCCCCCCCCCC)c2)C(=O)OC[C@H](COC(=O)c2cc(OCCOCCOCCOC)c(OCCOCCOCCOC)c(OCCOCCOCCOC)c2)OC(=O)c2cc(OCCOCCOCCOC)c(OCCOCCOCCOC)c(OCCOCCOCCOC)c2)c1 [Compound 2S, (3,5)-12G1-BMPA-GC-(S)-(3,4,5)-3EO-G1] needs its Dh (nm) filled in; supply it.
OUT: 165

###

Test: Dimensions (size, PDI) of DNPs co-assembled from IAJDs and Luc-mRNA by DLS
Type: physicochemical
Conditions: Table 17; DNPs used in vivo, IAJD 4 mg/mL, Luc-mRNA 0.10 mg/mL, acetate pH 4.0
Method: Dynamic Light Scattering (DLS) for the DNPs was performed in buffer with a Malvern Instruments particle sizer (Zetasizer Nano S, Malvern Instruments, UK) equipped with 4 mW He—Ne laser 633 nm and avalanche photodiode positioned at […] to the beam and temperature-controlled cuvette holder. Instrument parameters were determined automatically along with measurement times. Formulation of DNPs Containing mRNA-Luc: IAJDs were dissolved in ethanol with various initial concentrations (5-160 mg/mL). […]
assay.metric: PDI
// no unit, no text: just the number

Answered cases to consult:
CCCCCCCCCCCOc1cc(COC(=O)CCCN2CCN(CCO)CC2)cc(OCCCCCCCCCC)c1 = 0.367
CCCCCCCCCCCCCCCCCOc1cc(COC(=O)CCCN2CCN(CCO)CC2)cc(OCCCCCCCCCCC)c1 = 0.270
CCCCCCCCCCCCCCCOc1cc(COC(=O)CCCN2CCN(C)CC2)cc(OCCCCCCCCCCCCC)c1 = 0.306
CCCCCCCCCCCCCCCOc1cc(COC(=O)CCCN2CCN(CCO)CC2)cc(OCCCCCCCCCCCCCC)c1 = 0.339
CCCCCCCCCCCCCCOc1cc(COC(=O)CCCN2CCN(CCO)CC2)cc(OCCCCCCCCCCCCC)c1 = 0.203
CCCCCCCCCCCOc1cc(COC(=O)CCCN2CCN(CCO)CC2)cc(OCCCCCCCC)c1 = 0.511
CCCCCCCCCCCCCCCCCOc1cc(COC(=O)CCCN2CCN(CCO)CC2)cc(OCCCCCCCCCCCCCCC)c1 = 0.370
CCCCCCCCCCCCCCCCCCOc1cc(COC(=O)CCCN2CCN(C)CC2)cc(OCCCCCCCCCCCCC)c1 = 0.275
CCCCCCCCCCCCCCCCCOc1cc(COC(=O)CCCN2CCN(C)CC2)cc(OCCCCCCCCCCC)c1 = 0.247
CCCCCCCCCCCCCCOc1cc(CNC(=O)CCCN2CCN(C)CC2)cc(OCCCCCCCCCCC)c1 = 0.414

IN: Entry CCCCCCCCCCCCCCCCCCOc1cc(COC(=O)CCCN2CCN(C)CC2)cc(OCCCCCCCCCCC)c1 needs its PDI filled in; supply it.
OUT: 0.287

IN: Entry CCCCCCCCCCCCCCCCOc1cc(COC(=O)CCCN2CCN(C)CC2)cc(OCCCCCCCCCCC)c1 needs its PDI filled in; supply it.
OUT: 0.234
